Hello, the source for this data is ChEMBL document CHEMBL5143633, in case you need it.

Task for the reader: assign each of the following compounds its reported IC50.
- Tested on: NUGC-3
- assay_notes: Cytotoxicity against human NUGC-3 cells assessed as cell growth inhibition incubated for 48 hrs by SRB method
- Type: functional, cell-based
- measurement_parameters: NUGC-3, 48 h
Where a name gives a salt, the structure may show the parent alone.

Report IC50, nothing else, for this compound: "C[C@H](c1cccc2nc3c(C(=O)O)cccc3nc12)c1ccc(C(=O)O)c2nc3cccc([C@@H](C)O)c3nc12"
> 10 µM

Report IC50, nothing else, for this compound: "CC(=O)c1cccc2nc3c(C(=O)O[C@H](C)c4cccc5nc6c(C(=O)O)cccc6nc45)cccc3nc12"
0.035 µM

Report IC50, nothing else, for this compound: "C[C@@H](c1cc(C(=O)O)c2nc3cccc([C@@H](C)O)c3nc2c1)c1cccc2nc3c(C(=O)O)cccc3nc12"
> 10 µM

Report IC50, nothing else, for this compound: COc1cccc2c1C(=O)c1c(O)c3c(c(O)c1C2=O)C[C@@](O)(C(=O)CO)C[C@@H]3O[C@H]1C[C@H](N)[C@H](O)[C@H](C)O1 [DOXORUBICIN HYDROCHLORIDE]
0.15 µM

Report IC50, nothing else, for this compound: "C[C@@H](O)c1cccc2nc3c(C(=O)O[C@H](C)c4cccc5nc6c(C(=O)O)cccc6nc45)cccc3nc12"
0.0077 µM

Report IC50, nothing else, for this compound: "CC(=O)c1cccc2nc3c(C(=O)O)ccc([C@H](C)c4cccc5nc6c(C(=O)O)cccc6nc45)c3nc12"
> 10 µM

Report IC50, nothing else, for this compound: "C[C@@H](OC(=O)c1ccccc1N)c1cccc2nc3c(C(=O)O)cccc3nc12"
> 10 µM

Report IC50, nothing else, for this compound: "C[C@@H](O)c1cccc2nc3c(C(=O)O)cccc3nc12"
> 10 µM

Report IC50, nothing else, for this compound: "C[C@H](c1cc([C@@H](C)O)c2nc3cccc(C(=O)O)c3nc2c1)c1cccc2nc3c(C(=O)O)cccc3nc12"
> 10 µM

Report IC50, nothing else, for this compound: "C[C@@H](c1cccc2nc3c(C(=O)O)cccc3nc12)c1ccc(C(=O)O)c2nc3cccc([C@@H](C)O)c3nc12"
> 10 µM

* * *

- Test system: PC-3
- assay_notes: Cytotoxicity against human PC-3 cells assessed as cell growth inhibition incubated for 48 hrs by SRB method
- Type: functional, cell-based
- measurement_parameters: PC-3, 48 h
pIC50: −log10 of the molar value.
endpoint: pIC50

Report pIC50, nothing else, for this compound: "C[C@H](c1cccc2nc3c(C(=O)O)cccc3nc12)c1ccc(C(=O)O)c2nc3cccc([C@@H](C)O)c3nc12"
< 5.00

Report pIC50, nothing else, for this compound: "CC(=O)c1cccc2nc3c(C(=O)O[C@H](C)c4cccc5nc6c(C(=O)O)cccc6nc45)cccc3nc12"
7.33

Report pIC50, nothing else, for this compound: "C[C@@H](c1cccc2nc3c(C(=O)O)cccc3nc12)c1ccc(C(=O)O)c2nc3cccc([C@@H](C)O)c3nc12"
< 5.00

Report pIC50, nothing else, for this compound: "C[C@@H](O)c1cccc2nc3c(C(=O)O)cccc3nc12"
< 5.00
